Data origin: patent US20230095569A1

System Under Test: T1, human Claudin18.2 (CLDN18.2) (human, UniProt P56856 1-261)
T1 construct: the cell line is named under assay; also called human Claudine18.2; hClaudin18.2
Run Description: FACS on CHOK1-18.2 cells, antibody at 50 µg/ml
# maps each entry to its MAX MFI
API note: the answer field is a bare number with no unit suffix.

These solved cases illustrate the format of a correct answer.
Query: What measured MAX MFI goes with chAb15 (antibody, V domains shown) VH: EVMLVESGGDLVKPGGSLKLSCAASGFTFSTYTMSWVRQTPEKRLEWVATIVGGGGYTYYLDSVKGRFTISRDNAKNTLYLQMISLRSEDTALYYCARMGLTQRNALDYWGQGTSITVSS VL: DIVMTQSPSSLSVSEGEKVTLNCKSSQSLFNSGNQKNYLAWYQQKPGQPPKLLIYGASTRESGVPDRFTGSGFGTDFTLTISSVQAEDLAVYYCQNDHTYPLTFGAGAKLELK ?
Result: 94000

Query: What measured MAX MFI goes with IMAB362 (Zolbetuximab) (antibody, V domains shown) VH: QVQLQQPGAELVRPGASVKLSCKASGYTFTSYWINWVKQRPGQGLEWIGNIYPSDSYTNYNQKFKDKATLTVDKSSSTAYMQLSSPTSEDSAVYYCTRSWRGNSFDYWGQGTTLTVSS VL: DIVMTQSPSSLTVTAGEKVTMSCKSSQSLLNSGNQKNYLTWYQQKPGQPPKLLIYWASTRESGVPDRFTGSGSGTDFTLTISSVQAEDLAVYYCQNDYSYPFTFGSGTKLEIKR ?
Result: 49600

Read the next record carefully.
Query: What measured MAX MFI goes with chAb25 (antibody, V domains shown) VH: EAQLQQSGPELVKPGASVKIFCKASGYTFTDYYINWVKQSHGKSLEWIGDINPNNGGTTYNQKFKGKATLTVDKSSSTASMELRRLTSEDSSVYYCARRDAMDYWGQGTSVTVSS VL: DIVMTQSQKFMSTTVGDRVSITCTASQNVGPAVAWYQQKPGQSPKLLIYSASRRFTGVPDRFTGSGSGTVFTLTINNVQSEDLADYFCQQYISYPLTFGAGTKLELK ?
Result: 56100
